Target: T1, human CDH6 (full-length and EC domain deletion mutants) (Homo sapiens, UniProt P55285)
T1 construct: each one of the five EC domains could be deleted from full-length human CDH6; 3xFLAG (deletion mutants only, from the vector p3×FLAG-CMV-9); expressed in transfected cells; host or cells: 293α cells
T1 sequence (P55285 54-790): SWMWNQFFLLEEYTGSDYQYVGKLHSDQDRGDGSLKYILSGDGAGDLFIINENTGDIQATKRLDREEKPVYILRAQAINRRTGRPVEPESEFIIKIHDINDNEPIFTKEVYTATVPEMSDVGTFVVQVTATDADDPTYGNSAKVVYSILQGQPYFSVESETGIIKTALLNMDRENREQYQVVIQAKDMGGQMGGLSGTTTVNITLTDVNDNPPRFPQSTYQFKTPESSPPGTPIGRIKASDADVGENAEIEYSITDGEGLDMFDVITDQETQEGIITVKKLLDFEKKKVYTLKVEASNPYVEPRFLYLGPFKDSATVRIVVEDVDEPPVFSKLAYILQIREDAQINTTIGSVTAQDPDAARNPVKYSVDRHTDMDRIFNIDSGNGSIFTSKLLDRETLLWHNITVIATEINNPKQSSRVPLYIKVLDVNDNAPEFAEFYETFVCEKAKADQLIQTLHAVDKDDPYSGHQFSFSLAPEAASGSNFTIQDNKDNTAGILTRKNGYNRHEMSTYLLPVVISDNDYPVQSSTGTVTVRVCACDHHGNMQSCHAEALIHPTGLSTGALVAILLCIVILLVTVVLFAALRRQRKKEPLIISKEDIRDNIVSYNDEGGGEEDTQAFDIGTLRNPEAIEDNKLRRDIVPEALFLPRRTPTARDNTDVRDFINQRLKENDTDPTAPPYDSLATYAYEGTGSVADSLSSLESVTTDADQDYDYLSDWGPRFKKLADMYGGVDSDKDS
Test: Epitope analysis of rat anti-CDH6 antibody by flow cytometry using domain deletion mutants
Format: binding
Conditions: flow cytometry; transfected 293α cells; antibody 20 nM
Assay Endpoint: binding to full-length hCDH6

rG056: rat anti-human CDH6 monoclonal antibody produced by hybridoma rG056; variable regions SEQ ID NO: 30 and 35 (antibody, listed as Rattus norvegicus, V domains shown) VL: DVQMTQSPSSLAASPGESVSISCRATKSIGIYLAWYQQKPGKTFKLLIYSGSTLQSGTPSRFSGSGSGTDFTLTIRSLEPEDFGLYFCQQFYENPFTFGSGTKLEIRRA VH: EVQLQESGPGLVKPSQSLSLTCSVTDYSITTYFWGWIRKFPGNKMEWMGYMSYRGGTSYNPSLKSRISITRDTSKNQFFLQLNSVTTEDTATYYCARCPNYGGHSLVFDYWGQGVMVTVSS
bind
rG055: rat anti-human CDH6 monoclonal antibody produced by hybridoma rG055; variable regions SEQ ID NO: 20 and 25 (antibody, listed as Rattus norvegicus, V domains shown) VL: DVQMTHSPSYLAASPGESVSISCKTSKNISNYLVWYQQKPGEAYKLLIYSGSTLQSGTPSRFSGSGSGTDFTLTIRSLEPEDFGLYFCQQYYEKPFTFGSGTKLEIKRA VH: EVQLQESGPGLVRPSQSLSLSCSVTDYSITSNYWGWIRRFPGNKMEWMGYITYSGYTSYNPSLQSRISITRDTSKNQFFLQLNSVTAEDTATYYCARSINHGGYSYVVDAWGPGASVTVSS
bind
rG019: rat anti-human CDH6 monoclonal antibody produced by hybridoma rG019; variable regions SEQ ID NO: 10 and 15 (antibody, listed as Rattus norvegicus, V domains shown) VL: DIQMTQSPSLLSASVGDRVTLNCKASQNIYKNLAWYQQKLGEGPKLLIYDANTLQTGIPSRFSGSGSGSDFTLTISSLQPEDVATYFCQQYYSGWAFGGVTNLELKRA VH: QVQLQQSGAELVKPGSSVKISCKASGYTFTRNFMHWIKQQPGNGLEWIGWIYCGDGETEYNQKFNGKATLTADRSSSTAYMELSRLTSEDSAVYFCARGVYGGFAGGYFDFWGQGVMVTVSS
bind
